- Test system: Cytochrome P450 2D6 (Homo sapiens)
- Experimental details: Cytochrome panel assay with activity outcomes
- Assay conditions: recombinant CYP, pro-luciferin dealkylation, luminescence, p450-cyp2d6; series mostly up to 57.1 µM
About 2,600 (16%) of roughly 16,000 compounds were called active. Another 20% or so got no clear call; they are omitted. Only a sample is shown.
Test readout: AC50

Below, 8 compounds whose answers are already recorded.
Cc1ccc(C(=O)NC(=S)NCC2CCCO2)cc1 (stereo not drawn) = inactive
CC(Sc1nnc(Cc2cccs2)n1C1CCCCC1)C(N)=O (stereo not drawn) = inactive
Clc1ccc(Cl)c(OCc2cc(-c3ccccc3Cl)on2)c1 = inactive
Cn1cccc1C(=O)N1CCC2(CCN(Cc3ccncc3)CC2)CC1 = inactive
O=C(Cn1c(C(F)(F)F)nc2ccccc21)c1ccc(F)cc1 = inactive
S=C(NCc1ccco1)N1CCN(Cc2ccco2)CC1 = 7.94 µM (active)
c1cnc(Nc2nc(-c3ccc4ccccc4c3)cs2)nc1 = inactive
Cn1cccc1C(=O)N1CCC2(CC1)CN(Cc1ccc(C#N)cc1)C2 = inactive

Lab note: each compound below needs its AC50 filled in.
1. S=C(NCc1ccco1)N1CCN(C(c2ccccc2)c2ccccc2)CC1
2. C=C(CC1([C@@H](NP(=O)(c2ccccc2)c2ccccc2)[C@H]2C[C@@H]2CCN(C(=O)OCC)S(=O)(=O)c2ccc(C)cc2)CC1)c1ccccc1
3. Cn1c(=O)n(CC#N)c2ccccc21
4. Cn1cccc1C(=O)N1CCC2(CCN(Cc3ccccc3)CC2)CC1
5. O=C(O)C1C2CCC(C2)C1C(=O)NCc1ccco1 (stereo not drawn)

7.94 µM (active)
inactive
inactive
7.94 µM (active)
inactive
